Where these numbers come from: patent US11492335B2

- target_or_system: recombinant human VAP-1 (Homo sapiens)
- Construct: purchased R&D systems
- Sequence (Q16853 1-763): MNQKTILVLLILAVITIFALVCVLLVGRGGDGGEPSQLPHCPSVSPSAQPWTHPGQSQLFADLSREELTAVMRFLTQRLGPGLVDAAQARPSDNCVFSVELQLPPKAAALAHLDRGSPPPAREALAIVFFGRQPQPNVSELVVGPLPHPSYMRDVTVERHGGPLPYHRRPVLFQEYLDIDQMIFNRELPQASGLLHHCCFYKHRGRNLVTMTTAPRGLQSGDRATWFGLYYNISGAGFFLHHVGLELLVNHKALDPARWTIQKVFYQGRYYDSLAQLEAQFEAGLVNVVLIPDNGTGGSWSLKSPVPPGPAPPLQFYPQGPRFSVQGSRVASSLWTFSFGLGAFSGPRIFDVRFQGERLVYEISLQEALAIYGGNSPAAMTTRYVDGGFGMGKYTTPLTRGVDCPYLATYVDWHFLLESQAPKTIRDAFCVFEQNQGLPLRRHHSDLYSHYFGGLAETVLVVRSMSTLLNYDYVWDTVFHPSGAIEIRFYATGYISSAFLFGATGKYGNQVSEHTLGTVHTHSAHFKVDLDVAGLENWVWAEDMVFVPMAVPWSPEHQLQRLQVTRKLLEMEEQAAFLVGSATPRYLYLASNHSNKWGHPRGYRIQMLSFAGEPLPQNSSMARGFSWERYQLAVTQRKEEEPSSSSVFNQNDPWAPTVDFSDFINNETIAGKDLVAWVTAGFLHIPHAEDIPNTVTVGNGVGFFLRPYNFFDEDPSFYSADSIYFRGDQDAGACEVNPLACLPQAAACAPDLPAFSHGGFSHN
- experiment_summary: Activity on recombinant human VAP-1, Amplex Red HRP-coupled hydrogen peroxide assay, benzylamine substrate
- Assay type: biochemical
- test_conditions: recombinant human VAP-1, benzylamine substrate, 30 min preincubation at 37° C.; read-out: Inhibitory Activity (IC50, nM) human VAP-1
Where a name gives a salt, the structure may show the parent alone.
Field 'label' (enum: TRUE / FALSE). Set to TRUE when IC50 is strictly under 0.9 nM; else FALSE.

{"compound": "Cc1cc(-n2cnn(C/C(=C\\F)CN)c2=O)ncc1Br [Example 33, hydrochloride]", "assigned_label": "FALSE"}
{"compound": "Cc1cc(-c2ccc(-c3cnon3)cc2)cnc1-n1cnn(C/C(=C/F)CN)c1=O [Example 138, hydrochloride]", "assigned_label": "TRUE"}

**Q:** Consider the compound NC/C(=C\F)Cn1ncn(-c2ccc(-c3cccc(-c4nnc[nH]4)c3)cc2F)c1=O [Example 44] . Is its IC50 strictly less than 0.9 nM?
**A:** FALSE

**Q:** Again, but for CC(=O)Nc1cc(-c2cc(C)c(-n3cnn(C/C(=C/F)CN)c3=O)cn2)ccn1 [Example 123]
**A:** FALSE

**Q:** Also Cc1cc(-c2cccc(-c3ncon3)c2)cnc1-n1cnn(C/C(=C/F)CN)c1=O [Example 140] ?
**A:** TRUE

**Q:** Please do the same for Cc1cc(-c2cccc(-c3noc(C(C)C)n3)c2)cnc1-n1cnn(C/C(=C/F)CN)c1=O [Example 143, hydrochloride] as well.
**A:** TRUE
